Reported Ki values for the following molecules.
- Test target: Adenosine receptor A2a (Homo sapiens, UniProt P29274)
- Sequence (P29274 whole entry): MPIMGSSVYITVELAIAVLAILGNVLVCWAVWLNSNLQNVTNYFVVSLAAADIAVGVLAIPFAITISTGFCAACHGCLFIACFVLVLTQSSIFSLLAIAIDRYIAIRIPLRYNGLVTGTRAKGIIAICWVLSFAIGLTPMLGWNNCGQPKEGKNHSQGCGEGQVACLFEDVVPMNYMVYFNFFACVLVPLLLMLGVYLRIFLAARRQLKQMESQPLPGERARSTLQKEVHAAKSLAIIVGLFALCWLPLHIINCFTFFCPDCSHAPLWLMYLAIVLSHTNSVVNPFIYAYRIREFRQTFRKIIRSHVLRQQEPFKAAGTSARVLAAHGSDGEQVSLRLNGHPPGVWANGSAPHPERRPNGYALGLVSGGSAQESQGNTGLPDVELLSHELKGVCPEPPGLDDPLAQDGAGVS
- Method: Antagonist activity at human adenosine A2A receptor

{"Chemical string": "COCCOc1ccc(N2CCN(CCn3cnc4c3nc(N)n3nc(-c5ccco5)nc43)CC2)cc1", "Test target": "Adenosine receptor A2a (Homo sapiens, UniProt P29274)", "Ki": "0.9 nM"}

Recall the reported Ki of Nc1nc2c(ncn2CCN2CCC(c3ccc(F)cc3)CC2)c2nc(-c3ccco3)nn12 when tested on Adenosine receptor A2a (Homo sapiens, UniProt P29274).
0.9 nM

# assay system Adenosine receptor A2a (Homo sapiens, UniProt P29274): give Ki of Nc1nc2c(ncn2CCN2CCOCC2)c2nc(-c3ccco3)nn12
6.3 nM

Under Adenosine receptor A2a (Homo sapiens, UniProt P29274): report Ki of Nc1nc2c(ncn2CCN2CCN(c3ncc(F)cn3)CC2)c2nc(-c3ccco3)nn12 .
1.4 nM

Enter recorded Ki with Adenosine receptor A2a (Homo sapiens, UniProt P29274) for COc1ccc(N2CCN(CCn3cnc4c3nc(N)n3nc(-c5ccco5)nc43)CC2)cc1 here.
0.1 nM
